Can you tell me pseudotyped virus neutralization IC80 for the items I'm about to list?
molecular target: full-length SARS-CoV-2 spike, WA-1 / Wuhan-1 (S wt) (SARS-CoV-2, UniProt P0DTC2 14-1273); assay: cell-based or functional assay
Answers are plain numbers, in µg/mL.

binder | pseudotyped virus neutralization IC80, µg/mL
A19-1.1 (antibody, V domains shown) VH: QVQLVESGGGVVQPGRSLRLSCAASGFTFTNYAMHWVRQAPGKGLEWVAVISNDGSDKYYADSVKGRFTISRDNSKSTVYLQMSSLRPEDTAVYFCARDPPQVHWSLDYWGQGTLVTVSS VL: QSALTQPPSASGSPGQSVTISCTGTSSDVGDYNYVSWYQHHPGKAPKLIIYDVSKRPSGVPDRFSGSKSGDTASLTVSGLQAEDEADYYCSSYAGNNNAVFGTGTKVTVL | 0.53
A23-113.1 (antibody, V domains shown) VH: QVHLEESGGAVVQPGRSLRLSCAASGFTFSSYGMHWVRQAPGKGLEWVAVISHDGSYKYYADSVKGRFTISRDNSKDTLYLQTNSLRAEDTAMYYCAKSYGYWMAYFDYWGQGTLVTVSS VL: DIQMTQSPSSLSASVGDRVTITCRASQDISNYLAWYQQKPGKVPKLLIYAASTLQSGVPSRFSGSGSGTDFTLTISSLQPEDVATYYCQKYNSPWHTFGGGTKVEIK | 7.81

Fill in pseudotyped virus neutralization IC80 for each of the 2 binders listed.
1. A19-82.1 (antibody, V domains shown) VH: QVQLVESGGGVVQPGRSLRLSCVVSGLIFSTYDMHWVRQAPGKGLEWVAVISYDGSYKHYADSVKGRFTISRDSSKNTLYLQMNSLRPEDTAVYYCAKGEGVVAGTGKFDYWGQGTLVTVSS VL: SYVLTQPPSVSVAPGQTARITCGGNNIGSKSVHWYQQKPGQAPVLVVYDDSDRPSGIPERFSGSNSGNTATLTISRVEAGDEADYYCQVWDGSGDPWVFGGGTKLTVL
2. A19-61.1 (antibody, V domains shown) VH: QVQLVESGGGVVQPGRSLRLSCAASGFTFSSYAFHWVRQAPGKGLEWVAVISYDGSNQYYADSVKGRFTISRDNSKNTLYLQMNSLRADDTAVYYCARDLAIAVAGTWHYYNGMDVWGQGTTVTVSS VL: DIQMTQSPSSVSASVGDRVIITCRASQGISSWLAWYQQKPGKAPKVLIYDASSLQSGVPSRFSGSGYGTDFTLTISSLQPEDSATYYCQQAKSFPITFGQGTRLEIK

Result:
1. 5.93
2. 0.163
